Origin of values: patent US20060110451A1

Assay: Ascending multiple dose pharmacokinetics of enteric coated capsules in healthy subjects
Format: in vivo, human
Details: human, plasma, po, 100 mg, healthy subjects, multiple oral doses (q12 h) 100 mg, day 14; read-out: t1/2 (Mean) (converted)
parameter_measured: half-life (h)
Report as a plain number; the unit h is understood.

Incoming: Look up and report measured half-life for this entry: Cl.c1cc2c3c(c1)[C@H]1CCC[C@H]1CN3CCNC2 [Compound A.HCl]
Outgoing: 7.86

---

Assay: Ascending multiple dose pharmacokinetics of enteric coated capsules in healthy subjects
Format: in vivo, human
Conditions: human, plasma, po, 75 mg, healthy subjects, multiple oral doses (q12 h) 75 mg, day 14; read-out: AUCss (AUC0-12) (Geom. Mean)
parameter_measured: AUC(0-t) (ng·h/mL)
Only the number, expressed in ng·h/mL, is required.

Incoming: Tell me AUC(0-t) reported for Cl.c1cc2c3c(c1)[C@H]1CCC[C@H]1CN3CCNC2 [Compound A.HCl]
Outgoing: 24.1

---

Experiment: Ascending multiple dose pharmacokinetics of enteric coated capsules in schizophrenic patients
Format: in vivo, human
Conditions: human, plasma, po, 250 mg, Schizophrenia patients, multiple oral doses (q12 h) 250 mg, day 10; read-out: Cmax (Mean)
Description: Ascending multiple doses of 100, 150, and 250 mg Compound A.HCl were administered as twice-daily regimen (q12h) for 10 days in cohorts of 8 schizophrenic patients (6 active and 2 placebo). Blood samples for Compound A.HCl analysis were obtained on day 1 within 2 hours of test article administration and at various time points from 0.5 to 24 hours after test article administration. On day 10, blood samples were collected up to 12 hours after dose administration. […]
parameter_measured: Cmax (ng/mL)
I only need the number, in ng/mL, no unit after it.

Incoming: Kindly indicate its recorded Cmax. Item: Cl.c1cc2c3c(c1)[C@H]1CCC[C@H]1CN3CCNC2 [Compound A.HCl]
Outgoing: 20.6

---

Assay: Ascending multiple dose pharmacokinetics of enteric coated capsules in schizophrenic patients
Type: in vivo, human
Settings: human, plasma, po, 100 mg, Schizophrenia patients, single oral dose 100 mg, day 1; read-out: t1/2 (Geom. Mean) (converted)
parameter_measured: half-life (h)
Report only the number, with the unit h understood.

Incoming: Give the value of half-life reported for the following: Cl.c1cc2c3c(c1)[C@H]1CCC[C@H]1CN3CCNC2 [Compound A.HCl]
Outgoing: 8.67

---

Assay: Ascending multiple dose pharmacokinetics of enteric coated capsules in schizophrenic patients
Format: in vivo, human
Conditions: human, plasma, po, 250 mg, Schizophrenia patients, multiple oral doses (q12 h) 250 mg, day 10; read-out: Cmax (Geom. Mean)
parameter_measured: Cmax (ng/mL)
Response body: numeric value in ng/mL, unit text excluded.

Incoming: Given the compound Cl.c1cc2c3c(c1)[C@H]1CCC[C@H]1CN3CCNC2 [Compound A.HCl] , write its reported Cmax.
Outgoing: 15.9

---

Assay: Ascending multiple dose pharmacokinetics of enteric coated capsules in healthy subjects
Assay type: in vivo, human
Conditions: human, plasma, po, 50 mg, healthy subjects, single oral dose 50 mg, day 1; read-out: t1/2 (Mean) (converted)
parameter_measured: half-life (h)
Give a bare numeral; the unit h is implied.

Incoming: For Cl.c1cc2c3c(c1)[C@H]1CCC[C@H]1CN3CCNC2 [Compound A.HCl] , write its half-life.
Outgoing: 10.7
